experimentalProtocol: recombinant UMI read abundance after kanamycin selection (control-corrected) (log10(CPM+1)); higher = more efficient recombination; extreme values may be limits of the assay; sequences stand for … in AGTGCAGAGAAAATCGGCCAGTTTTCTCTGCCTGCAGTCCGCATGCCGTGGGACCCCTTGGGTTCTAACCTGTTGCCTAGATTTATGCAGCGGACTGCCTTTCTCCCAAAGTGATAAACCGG…AGGTTGGTTTCACT; site = the 11-nt donor;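 further: IS621 bridge recombinase in Escherichia coli cells against a fixed T5 target plasmid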
Known recombinant UMI read abundance (log10) of a selection of sequences
Form field (numeric): enter value without unit.

inputsequence="GTCCAAGCATGGACCGGTTTTCCCGGTAATCCGTATTTGAG (site ATCCAAGCTCT)" quantity="recombinant UMI read abundance (log10)" observedresult=0.677
inputsequence="TGTACACCATGGACCGGTTTTCCCGGTAATCCGTATTTGCC (site TGTACACCTGA)" quantity="recombinant UMI read abundance (log10)" observedresult=0
inputsequence="GCACATCCATGGACCGGTTTTCCCGGTAATCCGTATTTGAC (site ACACATCCTGT)" quantity="recombinant UMI read abundance (log10)" observedresult=2.23

What measured recombinant UMI read abundance (log10) goes with GCCAATCCATGGACCGGTTTTCCCGGTAATCCGTATTTGAA (site GCCAATCCTTT) ? 0.53

Could you do the same for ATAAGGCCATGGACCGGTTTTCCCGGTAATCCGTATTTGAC (site ATTAGGCCTGT) , please? 0

Also ATAGTAACATGGACCGGTTTTCCCGGTAATCCGTATTTGAG (site ATAGTAACTCT) ? 2.18

----------
experimentalProtocol: recombinant UMI read abundance after kanamycin selection (control-corrected) (log10(CPM+1)); higher = more efficient recombination; extreme values may be limits of the assay; sequences stand for … in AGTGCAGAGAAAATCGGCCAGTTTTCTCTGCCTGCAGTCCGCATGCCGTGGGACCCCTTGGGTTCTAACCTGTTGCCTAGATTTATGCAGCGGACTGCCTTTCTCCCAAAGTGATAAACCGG…AGGTTGGTTTCACT; site = the 11-nt donor
Response key: Y means recombinant UMI read abundance (log10) >= 0.009; N means recombinant UMI read abundance (log10) < 0.009.

// inclusive: recombinant UMI read abundance (log10) at least 0.009? input: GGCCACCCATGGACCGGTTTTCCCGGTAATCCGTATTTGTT (site GCCCACCCTAA) Y

How about CCGTTGACATGGACCGGTTTTCCCGGTAATCCGTATTTGCT (site CCGTTTACTAG) ? N

Would you mind doing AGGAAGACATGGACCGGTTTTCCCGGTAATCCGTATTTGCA (site AGTAAGACTTT) as well? N

Same question for AGCTCAGCATGGACCGGTTTTCCCGGTAATCCGTATTTGCG (site AGCTCAGCTCA) please. Y

Now consider ACCAGCTCATGGACCGGTTTTCCCGGTAATCCGTATTTGTC (site ACCAGCTCTGA) . Y

Similarly, CCATCATCATGGACCGGTTTTCCCGGTAATCCGTATTTGCT (site CCATCATCTAG) ? N

# repeat for ACCCACACATGGACCGGTTTTCCCGGTAATCCGTATTTGTA (site GCCCACACTTA) Y

Field entry: CCCTTGTCATGGACCGGTTTTCCCGGTAATCCGTATTTGGG (site CCCTTGTCTCC) Y
